run description: NCI Yeast Anticancer Drug Screen. Data for the mec2-1 strain (AID 157)
condition details: S. cerevisiae mec2-1 strain, at 33.0 µM, active compounds read high
Protocol: Growth inhibition of yeast strains with defined genetic alterations is measured as a screen for potential anti-cancer activity. Selected strains with alterations in DNA damage repair or cell cycle control were exposed to compounds and growth inhibition was measured relative to vehicle treated controls. The strain used in this assay is mec2-1
This is part of a sample that, as a whole, favours compounds with a hit. Of some 79,000 tested, about 15% had one in any assay.

compound	growth inhibition [%]
c1ccc2c(c1)c1ncccc1c1nccnc21	2
N#CN=Nc1cc(Cl)c(N=NC#N)cc1Cl	-3
OC1(c2ccccc2)CSC2=Nc3ccccc3C3CCN1N23 (configuration not stated)	-21
O=C1C2CC[C@@H]3C(=O)C(Cl)(Cl)[C@@H]3CCC2C1(Cl)Cl (some centres not stated)	21
CCC(C(=O)O)C1=C(c2ccccc2)CCc2ccccc21 (configuration not stated)	99
Oc1ccc(NCn2c(=S)sc3ccccc32)cc1	84
CCc1ncnc2cc(OCC3CO3)c(OC)cc12 (configuration not stated)	75
CCCCCCCCCCCCCCCCCCN(C)CC(COP(=O)([O-])OCC[N+](C)(C)C)OC (configuration not stated)	99
CC(C)(Br)C(=O)/C=C/c1ccc(Cl)c(Cl)c1	1
CCN(CC)CCN1C(=O)c2cccc3cc(OC)cc(c23)C1=O	-14
COc1cc2ccc(/C=C\[N+](=O)[O-])cc2cc1OC	97
Cn1ccnc1Oc1ccc(Cl)cc1	17

###

run description: NCI Yeast Anticancer Drug Screen. Data for the rad18 strain (AID 177)
condition details: S. cerevisiae rad18 mutant growth inhibition; at 3.7 µM; active compounds read high
This is part of a sample that, as a whole, favours compounds with a hit. Of some 79,000 tested, about 15% had one in any assay.
This listing pairs compounds with measured growth inhibition.

compound	scale unit	growth inhibition
Cc1nn(-c2cc(Cl)ccc2[N+](=O)[O-])c(C)c1Cl	%	2
Cc1ccc2[nH]c3c(C)c4cc[n+](C)cc4c(C)c3c2c1	%	-1
Cc1c(C2=C(Br)C(=O)N(C)C2=O)c(=O)n(C)c(=O)n1C	%	46
O=C(Cc1csc2[n+]1C(=O)/C(=C/c1ccc(Cl)cc1)S2)Nc1ccccc1	%	5
COc1ccc(C2c3cc4c(cc3OC(C)(O)C2C)OCO4)c(OC)c1 (stereo unspecified)	%	-2
O=C1NC(=O)C2C3C=CC(C3)C12 (stereo unspecified)	%	0

###

run description: NCI Yeast Anticancer Drug Screen. Data for the CLN2oe strain (AID 163);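 also: 0% = growth of vehicle-only control cultures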
condition details: S. cerevisiae CLN2oe strain, at 3.7 µM, active compounds read high
This is part of a sample that, as a whole, favours compounds with a hit. Of some 79,000 tested, about 15% had one in any assay.
assay endpoint: growth inhibition (%)

molecule	recorded result
c1ccc2c(c1)-c1nc3ccccc3cc1C2N1CCOCC1 (stereo not given)	-2
CCCCCCCCC/C=C/C=C/C(=O)NCC(=O)NC1C(O)C(O)C(Nc2ncnc3nc[nH]c23)OC1C(O)CO (stereo not given)	8
O=C1Nc2ccccc2/C1=C/COc1ccccc1	2
O=C1C=CC(=O)c2c(O)c(Nc3ccc(OC(F)(F)F)cc3)c(Cl)c(O)c21	0
O=C(COC(=O)c1cc(O)c(O)c(O)c1)c1ccc(-c2ccccc2)cc1	-9
COc1cc2ccc(/C=C\[N+](=O)[O-])cc2cc1OC	0
O=C([O][Sn]([O]C(=O)c1ccccc1)([c]1ccccc1)[c]1ccccc1)c1ccccc1	16
CN=C(N)N/N=C/c1ccc2c(c1)Cc1ccccc1-2	-34
O=C(Cc1csc2[n+]1C(=O)/C(=C/c1ccc(Cl)cc1)S2)Nc1ccccc1	-14
CN(N=O)N1C(=O)SCC(c2ccccc2)(c2ccccc2)C1=O	4
